Value source: patent US20210330611A1

- Tested on: LPS-induced microglia activation
- measurementProtocol: Image-based assay of LPS-induced microglia activation (HTS and dose response)
- Type: cell-based, rat
- reportedConditions: Rattus norvegicus, Microglia, read-out: LPS % inhibition
// reported inhibition at 10 µM per item

| molecule | inhibition at 10 µM, % |
| --- | --- |
| CCN(CC)CCOc1ccc(C(=C(Cl)c2ccccc2)c2ccccc2)cc1 | 7 |
| COc1cc(Cc2cnc(N)nc2N)cc(OC)c1OC | 17 |
| CCc1cc(C(N)=S)ccn1 [Ethionamide] | 14 |
| NC[C@H]1CC[C@H](C(=O)O)CC1 | 13 |
| CO/N=C(\C(=O)N[C@@H]1C(=O)N2C(C(=O)O)=C(CSc3nc(=O)c(=O)[nH]n3C)CS[C@H]12)c1csc(N)n1 | 12 |
| COc1cc2nc(N3CCN(C(=O)C4CCCO4)CC3)nc(N)c2cc1OC (stereo not drawn) | 9 |
| Nc1nc2nc[nH]c2c(=S)[nH]1 | 18 |
| CNCC[C@H](Oc1cccc2ccccc12)c1cccs1 | 24 |
| CN(N=O)C(=O)N[C@@H](C=O)[C@@H](O)[C@H](O)[C@H](O)CO | 19 |
